Origin of values: patent US20170355757A1

Target: T1, human C5 R885H-mmh (human, UniProt P01031 19-1676)
T1 construct: also called human C5 variant R885H
Test: SPR, mAb captured via anti-hFc, 37C
metric-name: koff (s⁻¹)
One number for each entry, in s⁻¹.

H4H12169P (antibody, human IgG4, V domains shown, Human IgG4 Fc with S108P hinge mutation (H4H)) VH: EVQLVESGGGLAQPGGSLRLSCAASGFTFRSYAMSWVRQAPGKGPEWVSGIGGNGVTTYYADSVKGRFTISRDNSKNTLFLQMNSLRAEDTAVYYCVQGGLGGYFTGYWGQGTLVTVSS VL: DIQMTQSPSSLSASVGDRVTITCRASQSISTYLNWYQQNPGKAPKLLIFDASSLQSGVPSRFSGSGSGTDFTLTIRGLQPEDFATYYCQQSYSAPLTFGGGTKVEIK = 0.000739

Field: next binder
## Task Could you share which koff value was measured for H4H11686N (antibody, V domains shown, also called H2M11686N) VH: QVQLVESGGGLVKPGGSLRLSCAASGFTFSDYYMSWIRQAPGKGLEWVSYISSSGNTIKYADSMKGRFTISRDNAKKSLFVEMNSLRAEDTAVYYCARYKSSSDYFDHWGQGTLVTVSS VL: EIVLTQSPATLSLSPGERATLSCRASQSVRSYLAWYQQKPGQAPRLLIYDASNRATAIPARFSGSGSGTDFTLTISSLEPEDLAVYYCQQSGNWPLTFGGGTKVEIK ?
## Result 0.0008
